- System: HMLE_sh_eGFP viability, CellTiter-Glo luminescence, 72 h
- procedure_summary: cytotoxicity in HMLE control line with eGFP shRNA, dose response, counter-screen for HMLE_sh_ECad selective toxicity project, cell-based, HMLE_sh_eGFP, luminescence (AID 463074);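 note: counterscreen control line to flag general toxicity for the HMLE_sh_ECad screen; potency for loss of viability as luminescence drops below DMSO wells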
observed_property: AC50

Per the record, O=C(NCc1ccc(F)cc1)C(=O)Nc1nc(C23CC4CC(CC(C4)C2)C3)cs1 has AC50 of 2.13 µM

Per the record, CCCC(=O)NC(=S)Nc1cccc(Cl)c1N1CCCC1 has AC50 of 4.25 µM

Per the record, CCN1CCN(CCCNC(=O)c2ccc3c(c2)NC(=O)/C(=C\c2cccc(C)c2)S3)CC1 has AC50 of 3.62 µM
